Subject of test: KLK4 (Homo sapiens)
Construct: purchased Viktor Magdolen (TUM), supplied by an academic laboratory
Sequence (Q9Y5K2 31-254): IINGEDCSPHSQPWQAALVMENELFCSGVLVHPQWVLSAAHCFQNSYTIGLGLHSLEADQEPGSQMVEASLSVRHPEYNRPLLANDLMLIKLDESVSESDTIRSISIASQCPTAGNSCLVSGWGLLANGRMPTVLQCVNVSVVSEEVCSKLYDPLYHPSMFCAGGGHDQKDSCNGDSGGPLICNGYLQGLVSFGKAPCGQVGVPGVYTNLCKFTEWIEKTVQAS
Test details: KLK4 enzymatic inhibition, fluorogenic substrate Boc-Val-Pro-Arg-AMC
Format: biochemical
Experimental conditions: 15 min pre-incubation at 37° C., Tris buffer pH 8.3; read-out: IC50 KLK4

| Molecule | IC50 |
| --- | --- |
| COCCOCCOC(=O)NC(c1ccc(NC(=N)N)cc1)P(=O)(Oc1ccccc1)Oc1ccccc1.O=C(O)C(F)(F)F (stereo not drawn) [Compound 28, 2,2,2-trifluoroacetate] | < 100 nM |
| N=C(N)Nc1ccc(C(NC(=O)OCCOCCOCc2cn(CCOCCOCCOCCNC(=O)CCCC[C@H]3SC[C@H]4NC(=O)N[C@H]43)nn2)P(=O)(Oc2ccccc2)Oc2ccccc2)cc1 (stereo partly drawn) | < 100 nM |
| N=C(N)Nc1ccc(C(NC(=O)OCCOc2ccccc2)P(=O)(Oc2ccccc2)Oc2ccccc2)cc1.O=C(O)C(F)(F)F (stereo not drawn) [Compound 30, 2,2,2-trifluoroacetate] | < 100 nM |
| CCN(CC)c1ccc2c(-c3ccccc3C(=O)N3CCN(C(=O)CCCCCCCn4cc(COCCOCCOC(=O)NC(c5ccc(NC(=N)N)cc5)P(=O)(Oc5ccccc5)Oc5ccccc5)nn4)CC3)c3ccc(=[N+](CC)CC)cc-3oc2c1 (stereo not drawn) | < 100 nM |
| N=C(N)Nc1ccc(C(NS(=O)(=O)c2ccccc2)P(=O)(Oc2ccccc2)Oc2ccccc2)cc1 (stereo not drawn) | 2500 to 10000 nM |
| N=C(N)Nc1ccc(C(NS(=O)(=O)c2ccc(C(F)(F)F)cc2)P(=O)(Oc2ccccc2)Oc2ccccc2)cc1 (stereo not drawn) | < 100 nM |
